B1: C8orf76 (parent)
chain: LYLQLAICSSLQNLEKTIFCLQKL

variants of: B1; assay: protein stability index of a GFP-peptide fusion (GPS, HEK-293T) (PSI 1-6); higher = more stable; conditions: c terminus: a fixed tail appended;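 also: lentivirally expressed fusions sorted by FACS into six bins by GFP to DsRed ratio, PSI derived from sequencing read proportions per bin multiplied by bin number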
READOUT_LABEL: protein stability index
Give the value as a plain number.

Below: 5 variants and their reported protein stability index.
>>> df
   mutations  result
0       L21R    2.08
1        S9M    4.15
2        C8L    2.92
3        L1T    2.99
4       T17P    1.98

Ask | Output measured protein stability index for this item: `S10A`
Reply | 2.36

Ask | Note down protein stability index recorded for `Y2P`
Reply | 1.62

Ask | Provide one value: measured protein stability index of `S9K`
Reply | 1.75

Ask | Please give measured protein stability index of the following entry: `I7T`
Reply | 2.36

Ask | State, in one line, measured protein stability index of `E15W`
Reply | 3.01

Ask | // fetch protein stability index given entry `L24Q`
Reply | 3.56
